biological target: Fes (UniProt P07332); test: phosphorylation enrichment, bacterial display (enrichment ratio); higher = better substrate or ligand; peptides without Tyr show the background;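 note: 11-residue human phosphosite peptides and single-mutation variants displayed on the E. coli surface, counted by deep sequencing, each peptide's frequency after selection divided by its frequency in the unselected input library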;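 note: frequency after pTyr selection over input frequency; kinase dosed for 20-30% of maximal phosphorylation in three min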
Sequence (P07332 whole entry, looked up): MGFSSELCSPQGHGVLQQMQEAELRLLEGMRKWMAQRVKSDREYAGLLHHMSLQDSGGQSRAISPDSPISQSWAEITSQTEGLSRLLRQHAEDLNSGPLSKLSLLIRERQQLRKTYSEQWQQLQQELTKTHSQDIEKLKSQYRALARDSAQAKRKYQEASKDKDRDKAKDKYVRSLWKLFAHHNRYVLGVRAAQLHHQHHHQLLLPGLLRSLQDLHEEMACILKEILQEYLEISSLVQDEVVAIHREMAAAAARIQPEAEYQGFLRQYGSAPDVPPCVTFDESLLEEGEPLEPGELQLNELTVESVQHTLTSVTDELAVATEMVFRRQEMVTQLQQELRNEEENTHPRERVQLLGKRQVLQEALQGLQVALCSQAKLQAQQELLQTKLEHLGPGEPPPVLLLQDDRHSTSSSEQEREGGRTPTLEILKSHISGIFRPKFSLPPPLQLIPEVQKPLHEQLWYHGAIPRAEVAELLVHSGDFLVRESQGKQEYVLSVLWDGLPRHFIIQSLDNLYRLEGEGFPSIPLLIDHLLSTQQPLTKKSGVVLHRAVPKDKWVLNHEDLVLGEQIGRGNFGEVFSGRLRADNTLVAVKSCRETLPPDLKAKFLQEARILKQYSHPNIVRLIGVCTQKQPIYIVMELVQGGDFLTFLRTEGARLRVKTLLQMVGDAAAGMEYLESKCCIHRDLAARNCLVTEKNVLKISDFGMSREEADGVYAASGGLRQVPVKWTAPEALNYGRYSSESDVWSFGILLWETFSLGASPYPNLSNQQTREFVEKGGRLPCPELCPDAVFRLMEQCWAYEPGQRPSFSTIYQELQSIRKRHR
RESULT TYPE: phosphorylation enrichment

Query :: Determine from records and report phosphorylation enrichment for DDERGYRRVRC [GIGYF2_Y268_S273C]
Result :: 0.882

Query :: Determine from records and report phosphorylation enrichment for EAEALYQTKFQ [KRT73_Y325]
Result :: 1.19

Query :: Determine from records and report phosphorylation enrichment for YSTDYYRVGGH [NTRK2_Y707]
Result :: 0.732

Query :: Determine from records and report phosphorylation enrichment for KDQPDYKFQPR [SOX9_Y172_H169Q_YF]
Result :: 0.678

Query :: Determine from records and report phosphorylation enrichment for PGGNIYISPLK [RB1_Y805]
Result :: 0.58

Query :: Determine from records and report phosphorylation enrichment for SGSIHYSCVPR [GLB1_Y57_R59C]
Result :: 1.15

Query :: Determine from records and report phosphorylation enrichment for LFSGDCFRIQG [DDR2_Y740_Y740C_YF]
Result :: 1.15

Query :: Determine from records and report phosphorylation enrichment for VKKKLYEEIDQ [CYP17A1_Y329]
Result :: 0.98

Query :: Determine from records and report phosphorylation enrichment for HRGFLYLAIEF [TEK_Y899_Y897F_YF]
Result :: 1.67

Query :: Determine from records and report phosphorylation enrichment for PLYGEYFTLQI [TP53_Y327_D324Y]
Result :: 2.44

Query :: Determine from records and report phosphorylation enrichment for ALLTKYSRSSM [DSCC1_Y374_H376R]
Result :: 0.744

Query :: Determine from records and report phosphorylation enrichment for FQGGTYSKACT [FGG_Y380_S384C_YF]
Result :: 0.589

Query :: Determine from records and report phosphorylation enrichment for HAEERYGKELV [PSTPIP1_Y53_Q48H]
Result :: 1.26

Query :: Determine from records and report phosphorylation enrichment for GVLKEYGEKVL [CPS1_Y529_V531E]
Result :: 0.719

Query :: Determine from records and report phosphorylation enrichment for ETLLFYGCRRS [POR_Y564_YF]
Result :: 0.675

Query :: Determine from records and report phosphorylation enrichment for LLANAYIFDVQ [L1CAM_Y418_V421D_YF]
Result :: 1.84

Query :: Determine from records and report phosphorylation enrichment for ILIFHYAKGQP [MPZ_Y82_S78L]
Result :: 1.37

Query :: Determine from records and report phosphorylation enrichment for RELGEYALAEF [ALDH1A3_Y492_YF]
Result :: 1.06

Query :: Determine from records and report phosphorylation enrichment for SSFSRYIMMPN [LEF1_Y114_G113R_YF]
Result :: 0.806

Query :: Determine from records and report phosphorylation enrichment for TTPYNYSYIFK [RAB14_Y8_A4T]
Result :: 0.658

Query :: Determine from records and report phosphorylation enrichment for FADIAYNYRDG [PAH_Y166_H170D]
Result :: 0.836

Query :: Determine from records and report phosphorylation enrichment for HTLQLYRCREE [ALPK3_Y342]
Result :: 1.03

Query :: Determine from records and report phosphorylation enrichment for NQELIYEGQRL [TBK1_Y354_R357Q]
Result :: 1.42

Query :: Determine from records and report phosphorylation enrichment for DTYDPYLDIAL [USP36_Y268_V271I]
Result :: 1.55

Query :: Determine from records and report phosphorylation enrichment for KFWREYILSLE [GPC3_Y299_YF]
Result :: 1.2

Query :: Determine from records and report phosphorylation enrichment for ETLLYYGCRRS [POR_Y564]
Result :: 0.897

Query :: Determine from records and report phosphorylation enrichment for SSSGAYGGGFG [KRT19_Y61_YF]
Result :: 0.689

Query :: Determine from records and report phosphorylation enrichment for SLVGCYNLTFM [HS6ST3_Y323]
Result :: 1.56

Query :: Determine from records and report phosphorylation enrichment for LEQRPYRRGSE [KCNJ12_Y427_E430G]
Result :: 0.683

Query :: Determine from records and report phosphorylation enrichment for DFFDLYGGEKK [PTPN11_Y66_F71K_YF]
Result :: 1.38

Query :: Determine from records and report phosphorylation enrichment for LVSCTYQLARG [FGFR2_Y608]
Result :: 1.08

Query :: Determine from records and report phosphorylation enrichment for YRKNTYNVKST [SYNE2_Y575_I574T]
Result :: 0.465

Query :: Determine from records and report phosphorylation enrichment for PPSELYFVKVD [TERT_Y707_P704S]
Result :: 1.63

Query :: Determine from records and report phosphorylation enrichment for KDFNKYVAFIE [KDM4B_Y31_YF]
Result :: 0.836

Query :: Determine from records and report phosphorylation enrichment for ALARKYHGGGG [HBB_Y146_H144R]
Result :: 0.408

Query :: Determine from records and report phosphorylation enrichment for INMKKYCKKDY [NTN1_Y490]
Result :: 0.912

Query :: Determine from records and report phosphorylation enrichment for AVLSLYASGRN [ACTA1_Y145_T150N]
Result :: 0.989

Query :: Determine from records and report phosphorylation enrichment for EVVGRYSVHFA [MLH1_Y183_N187Y_YF]
Result :: 0.978

Query :: Determine from records and report phosphorylation enrichment for CVVVPYEPPEV [TP53_Y220_S215C]
Result :: 1.54

Query :: Determine from records and report phosphorylation enrichment for RVDRDYVLKSA [HTATIP2_Y111]
Result :: 0.872

Query :: Determine from records and report phosphorylation enrichment for LINPKYSVEEE [PCDH19_Y27_L25P]
Result :: 2.28

Query :: Determine from records and report phosphorylation enrichment for EYGRRYGFSCQ [CCDC93_Y209_R213C]
Result :: 1.12

Query :: Determine from records and report phosphorylation enrichment for VPFARYLAMNK [HARS1_Y138]
Result :: 0.516

Query :: Determine from records and report phosphorylation enrichment for RALLNYIASKF [GSTA3_Y74_I71L_YF]
Result :: 0.956

Query :: Determine from records and report phosphorylation enrichment for LRSRVYEVPVE [SLC26A3_Y756_N753S]
Result :: 0.91
